The entries below come with measured protein stability index values attached.
B1: TMEM192 (parent)
chain: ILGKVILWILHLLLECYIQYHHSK

variants of: B1; assay: protein stability index of a GFP-peptide fusion (GPS, HEK-293T) (PSI 1-6); higher = more stable; settings: c terminus: a fixed tail appended;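 further: lentivirally expressed fusions sorted by FACS into six bins by GFP to DsRed ratio, PSI derived from sequencing read proportions per bin multiplied by bin number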
Reply briefly: the number, and no unit.

Solved cases below.
>  <biosequence>
RLGKVILWILHLLLECYIQYHHSK [I1R]

>  <measurement>
2.92

$$$$
>  <biosequence>
ILGKVILWRLHLLLECYIQYHHSK [I9R]

>  <measurement>
2.96

$$$$
>  <biosequence>
ILGKVCLWILHLLLECYIQYHHSK [I6C]

>  <measurement>
2.94

$$$$
>  <biosequence>
ILGKVILWILHLLLECYFQYHHSK [I18F]

>  <measurement>
3.01

$$$$
>  <biosequence>
ILGKVILWILHLLLECYIMYHHSK [Q19M]

>  <measurement>
2.97

$$$$
>  <biosequence>
ILGKVILWILHLLLECYIQYHHSN [K24N]

>  <measurement>
3.06

$$$$

Alright, here's another variant for you.
protein stability index recorded for this variant, ILGKVILWIFHLLLECYIQYHHSK [L10F] , is 3.04
